tested on: ACHN renal; test: NCI-60 one-dose screen, 48 h (100 = growth as untreated, 0 = no growth, -100 = all killed); details: 10 µM unless noted
About 83,000 compounds went through this panel and 20% of them were active in at least one assay; those are over-represented in the sample as a whole.

{"columns": ["compound", "units", "growth"],
 "data": [
  ["C=C1C(=O)O[C@H]2[C@H]1CC/C(COC(=O)CCC(=O)OC/C1=C/CC[C@@]3(C)O[C@H]3[C@H]3OC(=O)C(=C)[C@@H]3CC1)=C\\CC[C@@]1(C)O[C@@H]21", "%", -21.8],
  ["O=CN1N=C(c2ccc(F)cc2)CC1c1cccc(Nc2ccnc3cc(C(F)(F)F)ccc23)c1 (centres undefined)", "%", 54.4],
  ["CC(C)(C)c1ccc2oc(=O)n(SC(Cl)(Cl)Cl)c2c1", "%", 106],
  ["N#Cc1c(-c2ccc(F)cc2)c(C#N)c2c(C#N)c(N)nn2c1N", "%", 95.7]
]}

* * *

Test system: OVCAR-3 ovarian
Assay: NCI-60 one-dose screen, 48 h (100 = growth as untreated, 0 = no growth, -100 = all killed)
Conditions: 10 µM unless noted
Experimental: Growth inhibition of the OVCAR-3 human tumor cell line is measured as a screen for anti-cancer activity. Cells are grown in 96 well plates and exposed to the test compound for 48 hours. Compounds are tested at a single concentration, which is 10^-5 M for most compounds. The reported endpoint is percent growth (GI% or GIPRCNT), where numbers from 0 - 100% represent growth inhibition, and numbers from -100% - 0 represent cell death. For example, a value of 40 represents 60% growth inhibition. […]
Compounds without any hit were thinned out: in the full panel of roughly 83,000, 20% have a hit.
Under this convention, 1.0 denotes growth strictly below 60% and 0.0 denotes growth at or above 60%.

{"columns": ["molecule", "system-name", "answer-label"],
 "data": [
  ["N#Cc1c(-c2ccc(F)cc2)nc(N/N=C/c2c[nH]c3ccccc23)nc1N1CCOCC1", "OVCAR-3 ovarian", 0.0],
  ["CC(=O)Nc1nc2c(c(N)c1C#N)C(c1cccc(Cl)c1)C1=C(CCCC1=O)N2c1sc2c(c1C#N)CCCC2 (stereo not given)", "OVCAR-3 ovarian", 1.0],
  ["Clc1ccc2c(NCCCNC3CCCCC3)ccnc2c1", "OVCAR-3 ovarian", 0.0],
  ["Cc1nc2sc(C(=O)Nc3cccc(Cl)c3C)c(N)c2cc1C(C)O (stereo not given)", "OVCAR-3 ovarian", 1.0],
  ["COc1ccc2[nH]c(-c3ccccc3)c(C=C(C#N)C#N)c2c1", "OVCAR-3 ovarian", 1.0]
]}

* * *

Tested on: NCI-H226 lung
Experiment: NCI-60 one-dose screen, 48 h (100 = growth as untreated, 0 = no growth, -100 = all killed)
Details: 10 µM unless noted
Method: Growth inhibition of the NCI-H226 human Non-Small Cell Lung tumor cell line is measured as a screen for anti-cancer activity. Cells are grown in 96 well plates and exposed to the test compound for 48 hours. Compounds are tested at a single concentration, which is 10^-5 M for most compounds. The reported endpoint is percent growth (GI% or GIPRCNT), where numbers from 0 - 100% represent growth inhibition, and numbers from -100% - 0 represent cell death. […]
About 83,000 compounds went through this panel and 20% of them were active in at least one assay; those are over-represented in the sample as a whole.

{"columns": ["molecule", "growth (%)"],
 "data": [
  ["C=C1C(=O)O[C@H]2[C@H]1CC/C(COC(=O)CCC(=O)OC/C1=C/CC[C@@]3(C)O[C@H]3[C@H]3OC(=O)C(=C)[C@@H]3CC1)=C\\CC[C@@]1(C)O[C@@H]21", 84.3],
  ["O=C(O)COc1ccc2c(=O)c3sc4c(=O)c5ccccc5c(=O)c4c3c(=O)c2c1", 28.6],
  ["N#Cc1c(-c2ccc(F)cc2)c(C#N)c2c(C#N)c(N)nn2c1N", 82.2],
  ["COc1ccccc1Nc1nnc(-c2ccc(Cl)cc2)o1", 73.6],
  ["COc1ccc2c(c1)C1(C(=O)N2)C(C#N)=C(c2ccccc2)Nc2c1c(-c1ccccc1)nn2-c1ccccc1 (stereo not drawn)", 101],
  ["C=C(C)[C@@H]1CC[C@]2(C(=O)OCCOCCOCC[P+](c3ccccc3)(c3ccccc3)c3ccccc3)CC[C@]3(C)[C@H](CC[C@@H]4[C@@]5(C)CC[C@H](OC(=O)C(Cl)Cl)C(C)(C)[C@@H]5CC[C@]43C)[C@@H]12", -2.33],
  ["CC(C)(C)c1ccc2oc(=O)n(SC(Cl)(Cl)Cl)c2c1", 104],
  ["C=C(C)[C@@H]1CC[C@]2(C(=O)OCCCC[P+](c3ccccc3)(c3ccccc3)c3ccccc3)CC[C@]3(C)[C@H](CC[C@@H]4[C@@]5(C)CC[C@H](OC(=O)C(Cl)Cl)C(C)(C)[C@@H]5CC[C@]43C)[C@@H]12", -78.5],
  ["CC(=O)Oc1c2c(nc3c1c1ccccc1n3Cc1ccccc1)-c1ccccc1C2", 85.9],
  ["S=C(Nc1ccccc1)c1ccccn1", 94.7],
  ["CCCn1c(N)c(C(N)=O)sc1=S", 103],
  ["COc1ccc(C(=O)c2cc(OC)c(C)c(OC)c2)cc1OC(=O)CCl", 104],
  ["O=C1Nc2ccc(Cl)cc2/C1=N/c1nc(-c2ccc(Cl)cc2)cs1", 36.9],
  ["CCc1ccc(OCc2ccccc2C(=O)Nc2ccc3nc(C)cc(N)c3c2)cc1", -45.8],
  ["O=C1Nc2ccc(Br)cc2/C1=N\\N=C/c1cn(Cc2ccccc2)c2ccccc12", 80.5],
  ["COc1cc(-c2csc(NC(=O)Nc3ccc(C(F)(F)F)cc3)n2)cc(OC)c1OC", 0.0527],
  ["COc1ccc(/C=C/C(=O)/C=C(/C=C/c2ccc(OC)c(OC)c2)OB(F)F)cc1OC", 57.1],
  ["CC(C)(C#N)c1cc(F)cc(C(=O)Nc2cc(Nc3ncccc3-c3ncnc4nc[nH]c34)ccc2F)c1", 41.3],
  ["CC1CCN(CCCCCOc2ccc3oc4ccccc4c(=O)c3c2)CC1", 90.6],
  ["C=C1C(=O)O[C@H]2[C@H]1CC/C(COC(=O)NCc1nc3ccccc3[nH]1)=C\\CC[C@@]1(C)O[C@@H]21", 88.4],
  ["C=C1C(=O)O[C@H]2[C@H]1CC/C(COC(=O)N1CCC[C@H]1C(=O)Nc1ccc(OC)c(C(N)=O)c1O)=C\\CC[C@@]1(C)O[C@@H]21", 52.8],
  ["Nc1ccccc1NC(=O)c1ccc(CSc2nc(N3CCOCC3)c3cccn3n2)cc1", 6.52],
  ["COc1cc(-c2csc(NC(=O)Nc3ccc(Cl)cc3)n2)cc(OC)c1OC", 32.6],
  ["CN(C)CSc1nc2ccccc2s1", 95.1],
  ["OCCNc1nc(NCCO)nc(Nc2ccc(C3=NN(c4ccc(Cl)cc4)C(c4ccc(Cl)cc4)C3)cc2)n1 (stereo not drawn)", 104],
  ["CSc1nc(-c2ccc(F)cc2)c(C#N)c(N2CCOCC2)n1", 80],
  ["CCC1=C[C@H]2CN(CCc3c([nH]c4ccccc34)[C@@](C(=O)OC)(c3cc4c(cc3OC)N(C)[C@H]3[C@@](O)(C(=O)OC)[C@H](OC(C)=O)[C@]5(CC)[C@@H]6C[C@@H]6CN6CC[C@]43[C@@H]65)C2)C1", 47.9],
  ["COc1ccc([C@H]2[C@@H](F)C(=O)N2c2cc(OC)c(OC)c(OC)c2)cc1F", 59],
  ["CC1(C)CC[C@]2(c3nnc(-c4ccncc4)o3)CC[C@]3(C)C(=CC[C@@H]4[C@@]5(C)CCC(=O)C(C)(C)[C@@H]5CC[C@]43C)[C@@H]2C1", 64.9],
  ["C/C(=C\\c1cnc(C)s1)[C@@H]1C[C@@H]2O[C@@H]2CCC[C@H](C)[C@H](O)[C@@H](C)C(=O)C(C)(C)[C@@H](O)CC(=O)O1", 85.3],
  ["C=C(C)[C@@H]1CC[C@]2(C(=O)N=C=S)CC[C@]3(C)[C@H](CC[C@@H]4[C@@]5(C)CCC(=O)C(C)(C)[C@@H]5CC[C@]43C)[C@@H]12", 48.8],
  ["CCN1CCC[C@H]1c1cc(O)c2c(c1OC)C[C@H]1C[C@H]3[C@H](N)C(=O)C(C(N)=O)=C(O)[C@@]3(O)C(=O)C1=C2O", 1.47],
  ["O=C(N/N=C/C[C@@H]1[C@@H](/C=C/[C@@H](O)COc2cccc(Cl)c2)[C@H](O)C[C@@H]1O)c1ccncc1", 89.3]
]}

* * *

tested on: SR leukemia; experiment: NCI-60 one-dose screen, 48 h (100 = growth as untreated, 0 = no growth, -100 = all killed); settings: 10 µM unless noted
About 83,000 compounds went through this panel and 20% of them were active in at least one assay; those are over-represented in the sample as a whole. The source made the active and inactive calls. Rule for the calls: active = growth percent below 10; inactive = the rest.
Catalogue of growth readings, one per entry.
reported-metric: growth

{"columns": ["compound", "reported-metric", "result"],
 "data": [
  ["COc1ccc(-c2cc(C(=O)N3N=C(c4ccc(N)cc4)CC3c3ccc(OC)cc3)c3cc(OC)ccc3n2)cc1 (stereo not drawn)", "growth", "19.4% (inactive)"],
  ["O=C(CN1N=C(c2ccc(F)cc2)CCC1=O)Nc1nc2ccccc2s1", "growth", "-52.2% (active)"],
  ["Cc1cc(O)cc(O)c1N=NC1=NCCS1", "growth", "97.1% (inactive)"],
  ["CC(=O)c1c(OCC#N)ccc2c(C)cc(=O)oc12", "growth", "87.1% (inactive)"],
  ["COc1ccc(C(=O)c2cc(OC)c(OC)c(OC)c2)cc1OC(=O)C(Cl)(Cl)Cl", "growth", "6.59% (active)"],
  ["O=C(CCCC(=O)Nc1ccc(-n2nnc3cc(Cl)c(Cl)cc32)cc1)Nc1ccc(-n2nnc3cc(Cl)c(Cl)cc32)cc1", "growth", "51.2% (inactive)"],
  ["CNCc1cccc2c1OCCOCCOCCN(CCN1CCOCC1)S(=O)(=O)c1ccc(cc1)-c1cnc(N)c(n1)C(=O)N2", "growth", "7.93% (active)"],
  ["COc1ccc(/C=C(/C(=O)N2CCCC2)c2cc(OC)c(OC)c(OC)c2)cc1", "growth", "19.7% (inactive)"],
  ["COc1cc(-c2csc(NC(=O)Nc3cc(Cl)cc(Cl)c3)n2)cc(OC)c1OC", "growth", "-4.59% (active)"],
  ["CCCCCCC/C=C/[C@H]1O[C@]23C(=O)C[C@@]4(C[C@@H](OC5OC(CO)C(O)C(O)C5O)C[C@@H]4[C@H]2C=C1C)OC3=O (stereo partly drawn)", "growth", "6.22% (active)"],
  ["Cc1cc(NC(=O)CNc2nc(Oc3ccc(F)cc3)nc(-c3ccc(F)cc3)n2)ccc1Cl", "growth", "85.2% (inactive)"],
  ["CCOC(=O)CC[C@H](NC(=O)c1ccc(NC)c2ccccc12)C(=O)OCC", "growth", "101% (inactive)"],
  ["O=c1[nH]c2ccccc2cc1-c1nc2ccncc2[nH]1", "growth", "46.8% (inactive)"],
  ["NS(=O)(=O)c1ccc(N2Cc3cc(Cl)ccc3OC3=C2C(=O)N(CC2CCCCC2)C3=O)cc1", "growth", "-43.4% (active)"],
  ["CCN1CCC[C@H]1c1cc(O)c2c(c1OC)C[C@H]1C[C@H]3[C@H](N)C(=O)C(C(N)=O)=C(O)[C@@]3(O)C(=O)C1=C2O", "growth", "-18.8% (active)"],
  ["COc1cc(/C=C/C(=O)/C=C/c2cc3ccc(Cl)cc3n(Cc3ccccc3)c2=O)ccc1O", "growth", "1.8% (active)"],
  ["CCN(CC)CC#CCOC(=O)[C@]1(C)CCC[C@]2(C)[C@H]3C[C@H]4C(C(C)C)=C[C@]3(CC[C@H]21)[C@@H]1C(=O)CCC(=O)[C@@H]14", "growth", "10.2% (inactive)"],
  ["CCCCC1=c2c([nH]c3ccc(OC)cc23)=NC2C=CC=NC12 (stereo not drawn)", "growth", "45% (inactive)"]
]}
